measurement_target: PTHR1YFPΔECD (human)
assay_method_text: cell-based or functional assay
quantity_kind: cAMP induction Max (normalized)

Some substances with known cAMP induction Max (normalized) results, for comparison:
[[record]]
substance = "VHHGFP-PTH(1-10)"
quantity_kind = "cAMP induction Max (normalized)"
recorded_result = 1.06

[[record]]
substance = "VHHGFP-PTH(1-14)"
quantity_kind = "cAMP induction Max (normalized)"
recorded_result = 1.16


I: VHHGFP-PTH(1-11)
II: VHHGFP-PTH(1-9)
Task: Return label of the item with the larger cAMP induction Max (normalized). Candidates: I , II . Answer with the label corresponding to your selection.
Output: I
(I: 1.19 normalized, II: 0.38 normalized)
